- system.tested: Nav1.7 (or SCN9A) channel; HEK cells stably transfected with hSCN9A (Homo sapiens)
- Construct: expressed in transfected cells
- assay.text: Nav1.7 block, PatchXpress 7000 automated whole-cell voltage clamp, estimated IC50 (EIC50)
- Assay type: cell-based
- details: estimated IC50; hSCN9A HEK cells, PatchXpress platform; Examples 815-1040
experimental.endpoint: IC50 (nM)

compound	IC50, nM
N#Cc1cc(S(=O)(=O)Nc2cccs2)ccc1Oc1ccccc1-c1ccccc1 [Example 1007]	3300
N#Cc1cc(S(=O)(=O)Nc2ncns2)ccc1Oc1ccc(I)cc1-c1cccc(CN2CCC2)c1 [Example 815]	0.6
Cc1nccnc1-c1cc(Cl)ccc1Oc1ccc(S(=O)(=O)Nc2ncns2)cc1C#N [Example 1010]	820
O=S(=O)(Nc1ncns1)c1cc(F)c(Oc2ccc(OC(F)(F)F)cc2-c2ccnnc2)cc1F [Example 897]	5.8
Nc1cc(-c2cc(Cl)ccc2Oc2ccc(S(=O)(=O)Nc3cccnn3)cc2Cl)ccn1 [Example 1014]	10
Cn1ccc(NS(=O)(=O)c2ccc(Oc3ccc(Cl)cc3-c3ccnn3C)c(C#N)c2)n1 [Example 887]	9000
N#Cc1cc(S(=O)(=O)Nc2ncns2)ccc1Oc1ccc(Cl)cc1-c1ccnn1C1CCOC1 (stereo not shown) [Example 882]	40
N#Cc1cc(S(=O)(=O)Nc2ncns2)ccc1Oc1ccc(Cl)cc1-c1cc(N2CCC2)ncn1 [Example 877]	470
Nc1cc(-c2cc(Cl)ccc2Oc2cc(F)c(S(=O)(=O)Nc3cccnn3)cc2Cl)ccn1 [Example 1031]	29
O=S(=O)(Nc1cscn1)c1cc(F)c(Oc2ccc(Cl)cc2-c2ccnc(CN3CCC3)c2)cc1F [Example 1032]	13

(a) N#Cc1cc(S(=O)(=O)Nc2ncns2)ccc1Oc1ccc(Cl)cc1-c1cccc(C(=O)NC2CC2)c1 [Example 864]
(b) O=S(=O)(Nc1ncns1)c1cc(F)c(Oc2ccc(C(F)(F)F)cc2-c2cccnn2)cc1F [Example 920]
Challenge: Higher IC50 between a and b ? When you have decided, please share the label of that item.
Response given: b
(b: 310 nM, a: 4.4 nM)

(1) CN1CC(n2nccc2-c2cc(C(F)(F)F)ccc2Oc2cc(F)c(S(=O)(=O)Nc3cscn3)cc2F)C1 [Example 1023]
(2) Cn1nccc1-c1cc(Cl)ccc1Oc1ccc(S(=O)(=O)Nc2ncns2)cn1 [Example 950]
Challenge: Higher IC50 between 1 and 2 ? When you have decided, please share the label of that item.
Response given: 2

====

- system.tested: Nav1.7 (or SCN9A) channel; HEK cells stably transfected with hSCN9A (Homo sapiens, UniProt Q15858)
- Construct: expressed in transfected cells
- Sequence (Q15858 whole entry): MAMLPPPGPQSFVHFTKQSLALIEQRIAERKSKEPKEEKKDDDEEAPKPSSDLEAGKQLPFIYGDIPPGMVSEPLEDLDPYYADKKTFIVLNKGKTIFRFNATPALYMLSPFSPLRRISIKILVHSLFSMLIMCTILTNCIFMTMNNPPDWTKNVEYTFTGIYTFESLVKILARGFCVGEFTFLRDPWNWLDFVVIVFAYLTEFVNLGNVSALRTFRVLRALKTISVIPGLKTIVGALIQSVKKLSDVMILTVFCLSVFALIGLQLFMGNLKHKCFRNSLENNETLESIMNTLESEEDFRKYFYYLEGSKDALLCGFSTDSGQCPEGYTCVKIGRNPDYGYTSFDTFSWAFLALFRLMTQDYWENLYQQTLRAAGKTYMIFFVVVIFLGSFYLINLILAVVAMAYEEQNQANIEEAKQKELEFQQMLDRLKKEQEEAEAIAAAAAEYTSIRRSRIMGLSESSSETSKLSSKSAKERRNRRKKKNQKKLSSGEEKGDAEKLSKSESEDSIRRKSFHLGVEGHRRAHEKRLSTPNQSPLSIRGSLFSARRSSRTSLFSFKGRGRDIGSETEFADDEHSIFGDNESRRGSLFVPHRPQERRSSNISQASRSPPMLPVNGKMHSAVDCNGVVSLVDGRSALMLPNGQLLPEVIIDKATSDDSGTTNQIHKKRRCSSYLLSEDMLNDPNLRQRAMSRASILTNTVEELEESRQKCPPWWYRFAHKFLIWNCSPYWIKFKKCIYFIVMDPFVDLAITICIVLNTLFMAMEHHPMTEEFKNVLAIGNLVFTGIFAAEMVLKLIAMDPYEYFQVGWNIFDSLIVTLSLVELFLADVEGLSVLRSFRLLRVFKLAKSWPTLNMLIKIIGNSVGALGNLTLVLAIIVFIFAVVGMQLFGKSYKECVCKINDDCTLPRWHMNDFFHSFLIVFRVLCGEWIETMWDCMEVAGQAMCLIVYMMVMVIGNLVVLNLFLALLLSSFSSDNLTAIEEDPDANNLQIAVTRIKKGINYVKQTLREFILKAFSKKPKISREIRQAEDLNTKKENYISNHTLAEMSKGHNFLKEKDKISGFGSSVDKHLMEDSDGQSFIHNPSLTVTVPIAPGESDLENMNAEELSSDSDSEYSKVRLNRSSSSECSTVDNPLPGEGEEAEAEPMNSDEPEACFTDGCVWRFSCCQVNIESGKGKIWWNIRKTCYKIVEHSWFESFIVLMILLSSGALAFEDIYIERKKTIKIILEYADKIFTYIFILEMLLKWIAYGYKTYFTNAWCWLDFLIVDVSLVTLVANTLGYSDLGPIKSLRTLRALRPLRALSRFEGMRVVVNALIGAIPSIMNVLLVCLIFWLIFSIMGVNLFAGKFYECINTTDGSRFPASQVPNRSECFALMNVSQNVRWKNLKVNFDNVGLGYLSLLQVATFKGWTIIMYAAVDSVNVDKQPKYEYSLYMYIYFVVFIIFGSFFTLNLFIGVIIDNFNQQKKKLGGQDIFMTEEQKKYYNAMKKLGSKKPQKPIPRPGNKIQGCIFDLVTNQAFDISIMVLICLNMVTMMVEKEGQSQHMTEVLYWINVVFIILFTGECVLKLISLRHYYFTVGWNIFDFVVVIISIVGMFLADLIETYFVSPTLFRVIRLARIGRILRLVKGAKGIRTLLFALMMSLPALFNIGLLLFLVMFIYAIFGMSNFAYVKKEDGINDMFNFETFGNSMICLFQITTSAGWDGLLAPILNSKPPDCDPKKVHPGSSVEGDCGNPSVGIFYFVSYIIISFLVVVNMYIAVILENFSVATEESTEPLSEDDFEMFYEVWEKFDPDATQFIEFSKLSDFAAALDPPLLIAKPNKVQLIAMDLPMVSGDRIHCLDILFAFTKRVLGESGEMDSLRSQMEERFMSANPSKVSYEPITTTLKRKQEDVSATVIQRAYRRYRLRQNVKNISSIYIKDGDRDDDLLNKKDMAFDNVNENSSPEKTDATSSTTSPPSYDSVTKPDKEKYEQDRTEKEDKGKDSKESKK
- assay.text: Nav1.7 block, PatchXpress 7000 automated whole-cell voltage clamp, estimated IC50 (EIC50)
- Format: cell-based
- details: estimated IC50; hSCN9A HEK cells, PatchXpress platform; Examples 815-1040
experimental.endpoint: IC50 (nM)

Record excerpt, results attached:
O=S(=O)(Nc1cscn1)c1cc(F)c(Oc2ccc(C(F)(F)F)cc2-c2ccnn2C2CNC2)cc1F 11
O=S(=O)(Nc1nncs1)c1cc(F)c(Oc2ccc(Cl)cc2-c2cn[nH]c2)cc1F 100
Nc1nccc(-c2cc(Cl)ccc2Oc2cc(F)c(S(=O)(=O)Nc3ncns3)cc2F)n1 120
CN(C)c1cc(-c2cc(Cl)ccc2Oc2ccc(S(=O)(=O)Nc3ncns3)cc2C#N)ccn1 1.6

(A) N#Cc1cc(S(=O)(=O)Nc2ncns2)ccc1Oc1cc(C(F)(F)F)ccc1-c1ccnnc1
(B) CCOc1nnc(NS(=O)(=O)c2ccc(Oc3ccc(Cl)cc3-c3ccnn3C)c(C#N)c2)s1
Challenge: Between A and B , which one has the lower reported IC50 value? When you have decided, please share the label of that item.
Response given: A
